# Assay details: Single oral dose pharmacokinetic study in mice
# Format: in vivo, mouse
# Experimental parameters: female, BALB/c, mouse, plasma, po, 25 mg/kg, single oral gavage
Measured metric: Cmax (µM)

# Record smiles, Observed measurement
data = [
    ("COc1ccc(-c2c(C(F)(F)F)oc3c(CN4CCN(C)CC4)c(O)ccc3c2=O)cc1OC", 3.2),
]

###

# Assay details: Liver microsomal stability, mouse
# Experimental parameters: female, microsomes, pH 7.4

# Record smiles, half-life at 20 μM
measured = [
    ("C[C@H]1O[C@@H](O[C@H]2[C@@H](O)C[C@H](O[C@H]3[C@@H](O)C[C@H](O[C@H]4CC[C@@]5(C)[C@H](CC[C@@H]6[C@@H]5C[C@@H](O)[C@]5(C)[C@@H](C7=CC(=O)OC7)CC[C@]65O)C4)O[C@@H]3C)O[C@@H]2C)C[C@H](O)[C@@H]1O", "> 240 min"),
    ("CCCSc1ccc2nc(NC(=O)OC)[nH]c2c1", "42 min"),
]

###

# Assay details: Stability in simulated gastric fluid
# Experimental parameters: simulated gastric fluid with pepsin, pH 1
Measured metric: half-life at 99 µM

# Compound, Observed measurement
measured = [
    ("Cc1ccc(-c2nc3ccccc3s2)cc1NC(=O)c1cc([N+](=O)[O-])c(N2CCN(C)CC2)cc1Cl", "> 24 h"),
    ("NC(=O)N1c2ccccc2C=Cc2ccccc21 [carbamazepine]", "> 24 h"),
    ("COc1ccc(-c2c(C(F)(F)F)oc3c(CN4CCN(C)CC4)c(O)ccc3c2=O)cc1OC", "> 48 h"),
]

###

# Assay details: in vitro
# Experimental parameters: PAMPA, pH 7.4
Measured metric: Papp at 30 min, 0.05 µM (×10⁻⁶ cm/s)

# Compound, Measured metric, Unit info, Observed measurement
records = [
    ("NC(=O)N1c2ccccc2C=Cc2ccccc21 [carbamazepine]", "Papp at 30 min, 0.05 µM", "×10⁻⁶ cm/s", 95.6),
]

###

# Assay details: Liver microsomal stability, rat
# Experimental parameters: liver microsomes, pH 7.4
Measured half-life at 20 μM values are reported for all entries that follow.

# Record smiles, half-life at 20 μM
measured = [
    ("Cc1ccc(-c2nc3ccccc3s2)cc1NC(=O)c1cc([N+](=O)[O-])c(N2CCN(C)CC2)cc1Cl", "> 4 h"),
    ("COc1ccc(-c2c(C(F)(F)F)oc3c(CN4CCN(C)CC4)c(O)ccc3c2=O)cc1OC", "> 4 h"),
]

###

# Assay details: Liver microsomal stability, rat
# Experimental parameters: microsomes, pH 7.4
Measured metric: half-life at 20 μM (h)

# Compound, Readout qualifier, Observed measurement
data = [
    ("C[C@H]1O[C@@H](O[C@H]2[C@@H](O)C[C@H](O[C@H]3[C@@H](O)C[C@H](O[C@H]4CC[C@@]5(C)[C@H](CC[C@@H]6[C@@H]5C[C@@H](O)[C@]5(C)[C@@H](C7=CC(=O)OC7)CC[C@]65O)C4)O[C@@H]3C)O[C@@H]2C)C[C@H](O)[C@@H]1O [digoxin]", ">", 4),
    ("CCCSc1ccc2nc(NC(=O)OC)[nH]c2c1 [albendazole]", "=", 1.62),
]

###

Measured solubility at 18 h values are reported for all entries that follow.
# Assay details: Solubility in aqueous buffer
# Assay type: physicochemical
# Experimental parameters: citrate phosphate buffered saline, pH 7.4, aqueous buffer, kinetic from dmso stock

# Molecule, solubility at 18 h
records = [
    ("COc1ccc(-c2c(C(F)(F)F)oc3c(CN4CCN(C)CC4)c(O)ccc3c2=O)cc1OC [Compound 4]", "67 µM"),
    ("Cc1ccc(-c2nc3ccccc3s2)cc1NC(=O)c1cc([N+](=O)[O-])c(N2CCN(C)CC2)cc1Cl [Compound 5]", "0.3 µM"),
    ("NC(=O)N1c2ccccc2C=Cc2ccccc21 [carbamazepine]", "82.2 µM"),
]
